assay: pH-dependent equilibrium solubility, saturation shake-flask method in Britton-Robinson buffers and 1 M NaOH; format: physicochemical; conditions: BR (Britton-Robinson) buffer, aqueous buffer, thermodynamic from solid; pH 1.92 (nominal pH 2.0) BR buffer, 37 °C, mean of 3; read-out: SpH ± SD
property_label: solubility thermodynamic at 6 h (µg/mL)
Lab book: enter the figure in µg/mL, no units written.

For CC(C)Cc1ccc(C(C)C(=O)O)cc1 (stereo not shown) , what is its reported solubility thermodynamic at 6 h?
70.8

* * *

assay: Equilibrium solubility in biorelevant media, saturation shake-flask method; format: physicochemical; details: fassgf or other biorelevant, thermodynamic from solid; FeSSIF blank, pH 5.0, 37 °C; read-out: SpH ± SD
property_label: solubility thermodynamic at 6 h (µg/mL)
// return numeric value only (unit: µg/mL, not printed)

// solubility thermodynamic at 6 h lookup, key: CC(C)Cc1ccc(C(C)C(=O)O)cc1 (stereo not shown) [ibuprofen]
416
